Numbers sourced from PubChem BioAssay (NCATS).

assay: qHTS for differential inhibitors of proliferation of Plasmodium falciparum line D10 (AID 1877); conditions: series mostly up to 28.7 µM;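 also: parasites grown with compound for 72 h before DNA staining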; also: potency is read from the fitted curve at half-maximal effect
Records with an inconclusive call do not appear. Activity calls are given as the source filed them. Calls follow the shape of the dose curve; as a rule, active = well fitted curve in the direction sought with a large enough effect; inconclusive = small, poorly fitted or top-dose-only effect, or another doubt; inactive = no such curve, though single readings can be large or run the other way.
observable: Potency

Here's what some known entries look like.
compound: CSC(N)=NCCC[C@H](N)C(=O)O
experimental result: inactive

compound: Cc1cc2c(cc1Cl)N(C(=O)Nc1ccnc3ccccc13)CC2
experimental result: inactive

compound: CC(C)C[C@H](NC(=O)[C@H](O)[C@H](N)Cc1ccccc1)C(=O)O
experimental result: inactive

compound: CN[C@H](CC(=O)O)C(=O)O
experimental result: inactive

compound: O=c1cc(O)cc(/C=C/c2ccc(O)c(O)c2)o1
experimental result: 11.2 µM (active)

compound: CC(N)(Cc1ccc(O)c(O)c1)C(=O)O (stereo unspecified)
experimental result: inactive

compound: CC[C@@H]1Cc2cc(O)ccc2C2=C1c1ccc(O)cc1C[C@H]2CC
experimental result: 11.2 µM (active)

compound: O=C(O)C1=CCNCC1
experimental result: inactive

compound: NCC(O)(CS(=O)(=O)O)c1ccc(Cl)cc1 (stereo unspecified)
experimental result: inactive

compound: N=C(N)c1ccccc1
experimental result: inactive

Form field Potency, entry C[C@@H](NCCc1ccc(O)cc1)[C@@H](O)c1ccc(O)cc1 : inactive

Form field Potency, entry N[C@@H](Cc1ccc(F)cc1)C(=O)O : 17.8 µM (active)
